Provenance of the data: patent US20180036441A1

tested target: T1, MUC1 on HCT116/MUC1 cells (UniProt P15941 24-1255, limits assumed)
T1 construct: whole, on cells; also called MUC1 overexpressed cell line
T1 sequence (P15941 24-1255 limits assumed): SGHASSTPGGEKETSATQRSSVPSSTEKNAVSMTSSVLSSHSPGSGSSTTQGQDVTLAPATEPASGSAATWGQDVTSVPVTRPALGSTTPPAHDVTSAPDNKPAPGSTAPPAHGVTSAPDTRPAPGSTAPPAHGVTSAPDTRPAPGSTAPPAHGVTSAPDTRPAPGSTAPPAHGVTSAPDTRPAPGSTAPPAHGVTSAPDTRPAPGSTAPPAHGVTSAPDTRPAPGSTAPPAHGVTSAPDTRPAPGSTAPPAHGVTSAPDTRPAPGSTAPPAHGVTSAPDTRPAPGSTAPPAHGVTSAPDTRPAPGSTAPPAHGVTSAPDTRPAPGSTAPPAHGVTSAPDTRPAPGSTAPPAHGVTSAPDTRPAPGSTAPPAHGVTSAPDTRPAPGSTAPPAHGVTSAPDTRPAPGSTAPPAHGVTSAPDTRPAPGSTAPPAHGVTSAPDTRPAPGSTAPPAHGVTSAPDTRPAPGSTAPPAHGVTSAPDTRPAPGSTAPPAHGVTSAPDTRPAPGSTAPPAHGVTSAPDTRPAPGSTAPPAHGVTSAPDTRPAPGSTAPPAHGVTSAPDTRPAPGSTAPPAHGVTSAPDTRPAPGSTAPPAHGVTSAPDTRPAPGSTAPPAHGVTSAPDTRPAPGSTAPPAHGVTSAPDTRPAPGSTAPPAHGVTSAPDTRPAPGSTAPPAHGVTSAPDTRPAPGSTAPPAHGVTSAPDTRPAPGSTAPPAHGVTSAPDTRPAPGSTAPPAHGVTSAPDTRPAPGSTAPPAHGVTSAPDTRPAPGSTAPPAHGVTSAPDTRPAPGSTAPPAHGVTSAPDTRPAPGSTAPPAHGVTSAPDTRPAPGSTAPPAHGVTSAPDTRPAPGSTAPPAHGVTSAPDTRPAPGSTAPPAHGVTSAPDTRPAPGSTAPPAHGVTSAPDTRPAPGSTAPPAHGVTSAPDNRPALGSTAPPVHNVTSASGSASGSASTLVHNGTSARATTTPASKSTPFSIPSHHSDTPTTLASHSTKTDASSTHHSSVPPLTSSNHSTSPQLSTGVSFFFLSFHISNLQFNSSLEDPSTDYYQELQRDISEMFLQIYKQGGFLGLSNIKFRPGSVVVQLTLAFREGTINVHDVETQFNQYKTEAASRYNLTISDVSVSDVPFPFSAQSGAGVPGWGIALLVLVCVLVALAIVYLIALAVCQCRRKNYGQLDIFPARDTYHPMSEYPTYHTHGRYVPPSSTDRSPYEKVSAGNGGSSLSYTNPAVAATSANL
assay remarks: FACS titration, HCT116/MUC1 cells, antibody at 0.977 nM
metric name: geometric mean
Give bare numbers.

-- ask Recorded geometric mean of VH1 + VL4 (antibody, V domains shown, Humanized IgG expressed in HEK293; also called humanized antibody VH1+VL4) VH: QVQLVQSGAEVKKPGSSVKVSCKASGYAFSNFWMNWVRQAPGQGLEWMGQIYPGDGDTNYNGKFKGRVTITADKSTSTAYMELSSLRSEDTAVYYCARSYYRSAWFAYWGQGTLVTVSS VL: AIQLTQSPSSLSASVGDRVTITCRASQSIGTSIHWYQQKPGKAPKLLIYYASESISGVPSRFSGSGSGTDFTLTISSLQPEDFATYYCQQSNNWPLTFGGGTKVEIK , please.
-- reply 2.86
